- RUN_CONDITIONS: buffer; pH 7.4; 200.0 µM
MEASURE: solubility kinetic (µg/mL)
Just the number in µg/mL, nothing appended.

Solved entries:
> print(dat)
                                   compound  quantitative.readout
1  Cc1cccnc1NC(=O)C1COc2ccccc2O1 (stereo not given)                  40.1
2   C/C(=N/OC(=O)c1ccc(Cl)cc1Cl)c1oc(C)nc1C                   1.9
3  COCCNC(=S)N(C)C1(c2ccccc2Cl)CCCCC1=O (stereo not given)                  48.2
4    CCOC(=O)c1ccc2c(c1)N(C)C(=O)c1ccccc1S2                   7.7
5  O=C(O)CC1(CC(=O)Nc2ccc3c(c2)OCCCO3)CCCCC1                  50.6

In the following, a different compound is considered.
Would you mind telling me what solubility kinetic value was observed for CCn1c(/N=C/c2ccc(OC)cc2O)nc2ccccc21 ?
15.6
